// data source = patent US10683269B2

Listed here: items and their measured IC50.
- target-system: USP7 (Homo sapiens)
- Construct: The USP7 construct was PCR amplified and cloned into a pFLAG-CMV-6a vector (Sigma-Aldrich) with an N-terminal FLAG tag; made in house; host or cells: HEK293T
- Sequence (Q93009 whole entry): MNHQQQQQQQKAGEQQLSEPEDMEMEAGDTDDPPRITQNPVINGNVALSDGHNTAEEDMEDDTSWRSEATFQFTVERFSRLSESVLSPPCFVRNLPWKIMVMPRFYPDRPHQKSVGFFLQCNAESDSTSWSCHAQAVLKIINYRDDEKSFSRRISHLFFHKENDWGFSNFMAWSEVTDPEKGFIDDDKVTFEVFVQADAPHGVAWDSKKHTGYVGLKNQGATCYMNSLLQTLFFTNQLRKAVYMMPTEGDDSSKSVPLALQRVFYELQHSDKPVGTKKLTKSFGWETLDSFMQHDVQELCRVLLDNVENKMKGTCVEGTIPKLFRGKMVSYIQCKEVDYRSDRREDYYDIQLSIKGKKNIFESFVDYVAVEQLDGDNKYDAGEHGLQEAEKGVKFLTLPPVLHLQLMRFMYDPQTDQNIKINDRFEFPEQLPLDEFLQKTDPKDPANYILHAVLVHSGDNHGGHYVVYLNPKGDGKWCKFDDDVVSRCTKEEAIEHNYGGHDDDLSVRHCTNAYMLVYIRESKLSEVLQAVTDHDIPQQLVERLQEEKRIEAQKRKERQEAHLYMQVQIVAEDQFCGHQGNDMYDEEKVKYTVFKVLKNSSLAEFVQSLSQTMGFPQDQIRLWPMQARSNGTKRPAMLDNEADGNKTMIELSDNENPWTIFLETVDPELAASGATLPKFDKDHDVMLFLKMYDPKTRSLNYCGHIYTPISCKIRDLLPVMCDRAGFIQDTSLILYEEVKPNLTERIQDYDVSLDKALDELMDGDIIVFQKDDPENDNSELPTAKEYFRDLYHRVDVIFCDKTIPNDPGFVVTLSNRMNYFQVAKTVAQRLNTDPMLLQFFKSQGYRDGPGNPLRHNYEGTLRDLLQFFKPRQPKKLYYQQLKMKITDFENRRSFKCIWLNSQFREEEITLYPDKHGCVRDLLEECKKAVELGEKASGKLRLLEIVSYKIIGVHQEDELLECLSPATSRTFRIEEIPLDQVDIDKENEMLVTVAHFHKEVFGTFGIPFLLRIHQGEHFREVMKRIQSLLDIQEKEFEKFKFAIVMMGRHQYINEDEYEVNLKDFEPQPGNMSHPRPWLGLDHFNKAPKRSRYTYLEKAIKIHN
- protocol-details: USP7 biochemical IC50 assay (fluorescence polarisation, TAMRA labelled peptide linked to ubiquitin via an iso-peptide bond)
- condition-summary: 30 min pre-incubation of enzyme and compound, read after 2 hr incubation at room temperature, read-out: IC50 range

>  <compound>
N#CN1Cc2nc(NCCO)nc(-c3ccc(F)c(F)c3)c2C1

>  <IC50>
1 to 10 µM

$$$$
>  <compound>
CC(=O)Nc1cc2c(c(-c3ccccc3)c1)CN(C#N)C2

>  <IC50>
1 to 10 µM

$$$$
>  <compound>
CN(C)c1cc2c(c(-c3ccc(C#N)cc3C(N)=O)c1)CN(C#N)C2

>  <IC50>
1 to 10 µM

$$$$
>  <compound>
Cc1ccccc1-c1cc(C(=O)Nc2cccc3c2CN(C#N)C3)[nH]n1

>  <IC50>
10 to 30 µM

$$$$
>  <compound>
COc1ccc(-c2cc(NC(=O)[C@@H]3CCCN(C)C3)cc3c2CN(C#N)C3)cc1

>  <IC50>
< 1 µM

$$$$
>  <compound>
Cn1nccc1C(=O)Nc1cc2c(c(-c3ccccc3)c1)CN(C#N)C2

>  <IC50>
1 to 10 µM

$$$$
>  <compound>
Cn1cc2cc(-c3cccc4c3CN(C#N)C4)ccc2n1

>  <IC50>
1 to 10 µM

$$$$
>  <compound>
CC(=O)NCc1cc2c(c(-c3ccccc3)c1)CN(C#N)C2

>  <IC50>
1 to 10 µM

$$$$
>  <compound>
N#CN1Cc2nc(NCCO)nc(-c3cccc(N4CCCC4=O)c3)c2C1

>  <IC50>
< 1 µM

$$$$
>  <compound>
N#Cc1ccc(-c2cc(C(N)=O)cc3c2CN(C#N)C3)c(C#N)c1

>  <IC50>
1 to 10 µM

$$$$
>  <compound>
N#CN1Cc2nc(N[C@H]3CC[C@H](O)CC3)nc(N3CCc4ccccc4C3)c2C1

>  <IC50>
1 to 10 µM

$$$$
>  <compound>
N#CN1Cc2nccc(-c3cccc(C(=O)NCc4ccccc4)c3)c2C1

>  <IC50>
10 to 30 µM

$$$$
>  <compound>
N#CN1Cc2cccc(-c3cccc4c3C(=O)NCC4)c2C1

>  <IC50>
1 to 10 µM

$$$$
>  <compound>
N#Cc1cc(F)c(-c2cccc3c2CN(C#N)C3)c(C(N)=O)c1

>  <IC50>
1 to 10 µM

$$$$
>  <compound>
CS(=O)(=O)Nc1cc2c(c(-c3ccccc3)c1)CN(C#N)C2

>  <IC50>
1 to 10 µM

$$$$
>  <compound>
N#CN1Cc2cccc(-c3ccccc3)c2C1

>  <IC50>
1 to 10 µM

$$$$
>  <compound>
CC(NC(=O)c1cccc(-c2cccc3c2CN(C#N)C3)c1)c1ccccc1 (stereo not drawn)

>  <IC50>
1 to 10 µM

$$$$
>  <compound>
Cc1nc(-c2cc3c(c(-c4ccccc4)c2)CN(C#N)C3)no1

>  <IC50>
1 to 10 µM

$$$$
>  <compound>
CN1CCCC(CNc2nc3c(c(-c4ccccc4)n2)CN(C#N)C3)C1 (stereo not drawn)

>  <IC50>
1 to 10 µM

$$$$
>  <compound>
N#Cc1ccc(-c2cccc3c2CN(C#N)C3)c(C(N)=O)c1

>  <IC50>
1 to 10 µM

$$$$
>  <compound>
N#CN1Cc2cccc(NC(=O)c3ccc(S(=O)(=O)Nc4ccccc4)cc3)c2C1

>  <IC50>
1 to 10 µM

$$$$
>  <compound>
N#CN1Cc2nc(-c3ccccc3)nc(NCC(N)=O)c2C1

>  <IC50>
10 to 30 µM

$$$$
>  <compound>
COc1ccccc1-c1nc2c(c(N3CCCC3)n1)CN(C#N)C2

>  <IC50>
1 to 10 µM

$$$$
>  <compound>
CN1CCOC(CNc2nc3c(c(-c4cccnc4)n2)CN(C#N)C3)C1 (stereo not drawn)

>  <IC50>
1 to 10 µM

$$$$
>  <compound>
COc1cccc(OC2CCN(c3ncnc4c3CN(C#N)C4)CC2)c1

>  <IC50>
1 to 10 µM

$$$$
>  <compound>
N#CN1Cc2cc(NC(=O)c3cccnc3)cc(-c3ccccc3)c2C1

>  <IC50>
30 to 100 µM

$$$$
>  <compound>
N#CN1Cc2ncnc(-c3cccc(N4CCNC4=O)c3)c2C1

>  <IC50>
1 to 10 µM

$$$$

###

- target-system: USP7 (Homo sapiens)
- Construct: The USP7 construct was PCR amplified and cloned into a pFLAG-CMV-6a vector (Sigma-Aldrich) with an N-terminal FLAG tag; made in house; host or cells: HEK293T
- protocol-details: USP7 biochemical IC50 assay (fluorescence polarisation, TAMRA labelled peptide linked to ubiquitin via an iso-peptide bond)
- condition-summary: 30 min pre-incubation of enzyme and compound, read after 2 hr incubation at room temperature, read-out: IC50 range
pIC50: −log10 of the molar value.
property-name: pIC50

>  <smiles-repr>
N#CN1Cc2nc(NCC3CCOCC3)nc(-c3ccccc3)c2C1

>  <property-name>
pIC50

>  <reading>
5.00 to 6.00

$$$$
>  <smiles-repr>
CNC(=O)NCc1cc2c(c(-c3ccc(C#N)cc3)c1)CN(C#N)C2

>  <property-name>
pIC50

>  <reading>
> 6.00

$$$$
>  <smiles-repr>
N#CN1Cc2ncnc(N3CCN(c4ccc(F)cc4F)CC3)c2C1

>  <property-name>
pIC50

>  <reading>
4.52 to 5.00

$$$$
>  <smiles-repr>
N#Cc1ccc(-c2cc(NCC3CCOCC3)cc3c2CN(C#N)C3)c(C(N)=O)c1

>  <property-name>
pIC50

>  <reading>
5.00 to 6.00

$$$$
>  <smiles-repr>
N#CN1Cc2cc(NC[C@H](O)CO)cc(-c3ccc(F)cc3)c2C1

>  <property-name>
pIC50

>  <reading>
5.00 to 6.00

$$$$
>  <smiles-repr>
CN1CCN(C(=O)Nc2cc3c(c(-c4ccccc4)c2)CN(C#N)C3)CC1

>  <property-name>
pIC50

>  <reading>
> 6.00

$$$$
>  <smiles-repr>
N#CN1Cc2ncnc(N3CCC(Oc4ccccc4C(N)=O)CC3)c2C1

>  <property-name>
pIC50

>  <reading>
4.52 to 5.00

$$$$
